- assayed_target: T1, TEM-1 in a native state on aortic smooth muscle cells (AoSMC) (UniProt Q9HCU0 18-757, limits assumed)
- T1 construct: whole, on cells; also called tumor endothelial marker 1; endosialin
- T1 sequence (looked up): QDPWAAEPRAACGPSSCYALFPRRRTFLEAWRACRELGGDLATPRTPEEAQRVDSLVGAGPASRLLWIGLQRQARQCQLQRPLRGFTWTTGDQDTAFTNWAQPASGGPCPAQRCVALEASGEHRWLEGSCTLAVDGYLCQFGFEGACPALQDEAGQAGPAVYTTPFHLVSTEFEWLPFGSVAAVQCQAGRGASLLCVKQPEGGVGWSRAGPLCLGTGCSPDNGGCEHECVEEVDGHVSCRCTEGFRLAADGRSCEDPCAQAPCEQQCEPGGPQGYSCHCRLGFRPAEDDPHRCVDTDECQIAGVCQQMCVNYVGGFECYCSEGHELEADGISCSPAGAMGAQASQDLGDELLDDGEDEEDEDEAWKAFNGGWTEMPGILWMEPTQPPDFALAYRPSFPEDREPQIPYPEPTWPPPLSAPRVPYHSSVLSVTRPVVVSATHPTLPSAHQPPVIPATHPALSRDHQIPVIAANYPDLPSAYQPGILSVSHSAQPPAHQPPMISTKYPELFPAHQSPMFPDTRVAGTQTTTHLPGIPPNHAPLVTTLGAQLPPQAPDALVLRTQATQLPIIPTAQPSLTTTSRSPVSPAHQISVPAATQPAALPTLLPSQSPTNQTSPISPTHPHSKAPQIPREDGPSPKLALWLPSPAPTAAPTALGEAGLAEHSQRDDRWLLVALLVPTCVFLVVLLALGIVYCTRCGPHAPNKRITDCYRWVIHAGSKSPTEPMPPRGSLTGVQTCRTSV
- protocol_summary: flow cytometry on AoSMC, 10 µg/mL antibody, FITC goat anti-rat secondary; cells only 2.5, secondary only 3.5
property_name: Geometric mean of resulting FACS plot
One number for each entry.

Exercise: Consider the binder Antibody 15D10 (antibody, V domains shown, Rat monoclonal antibody from hybridoma, IgG2a/kappa; also called 15D10.G4.C12; ATCC PTA-12543) VH: QVQLMESGPGLVQPSETLSLTCTVSGFSLTNYNIHWVRQPPGKGLEWMGLMWSGGNTDYNSALKSRLTISRDTSKNQVFLKMNSLQSEDTTTYYCARDSGYGEGRLDYWGQGVMVTVSS VL: DIVLTQAPLSVSVTPGESASISCRSSKSLLGSKGINFLYWYLQKPGKSPQLLIYRMSNLASGVPDRFSGSGSETDFILKISKVETEDVGVYYCAQFLEYPNSFGAGTKLELK and give its measured Geometric mean of resulting FACS plot.
Key: 86.4
